Assay: Characterization of lipid nanoparticles encapsulating Fluc-mRNA
Format: physicochemical
Conditions: LNP encapsulating Fluc-mRNA transcribed using the cap analog
Binary call on PDI with cut-off 0.05: strictly below means true, and equality or higher means false.

>  <molecule>
CNc1ncnc2c1ncn2[C@@H]1O[C@H](COP(=O)(O)OP(=O)(O)OP(=O)(O)OC[C@H]2O[C@@H]([n+]3cn(C)c4c(=O)[nH]c(N)nc43)C(O)C2O)C(OP(=O)([O-])OC[C@H]2O[C@@H](n3cnc4c(=O)[nH]c(N)nc43)C(O)C2O)C1OC (some centres unmarked) [m6A, reference compound]

>  <assigned-label>
true

$$$$
>  <molecule>
COC1C(OP(=O)([O-])OC[C@H]2O[C@@H](n3cnc4c(=O)[nH]c(N)nc43)C(O)C2O)[C@@H](COP(=O)(O)OP(=O)(O)OP(=O)(O)OC[C@]23O[C@@H]([n+]4cn(C)c5c(=O)[nH]c(N)nc54)C(O[C@H]2CCS(=O)(=O)N(C)C)C3O)O[C@H]1n1cnc2c(N)ncnc21 (some centres unmarked) [YK-CAP-006]

>  <assigned-label>
true

$$$$
>  <molecule>
COC1C(OP(=O)([O-])OC[C@H]2O[C@@H](n3cnc4c(=O)[nH]c(N)nc43)C(O)C2O)[C@@H](COP(=O)(O)OP(=O)(O)OP(=O)(O)OC[C@]23O[C@@H]([n+]4cn(C)c5c(=O)[nH]c(N)nc54)C(O[C@H]2CCS(C)(=O)=O)C3O)O[C@H]1n1cnc2c(N)ncnc21 (some centres unmarked) [YK-CAP-005]

>  <assigned-label>
false

$$$$
>  <molecule>
COC1C(OP(=O)([O-])OC[C@H]2O[C@@H](n3cnc4c(=O)[nH]c(N)nc43)C(O)C2O)[C@@H](COP(=O)(O)OP(=O)(O)OP(=O)(O)OC[C@]23O[C@@H]([n+]4cn(C)c5c(=O)[nH]c(N)nc54)C(O[C@H]2CC#N)C3O)O[C@H]1n1cnc2c(N)ncnc21 (some centres unmarked) [YK-CAP-002]

>  <assigned-label>
false

$$$$
>  <molecule>
COC1C(OP(=O)([O-])OC[C@H]2O[C@@H](n3cnc4c(=O)[nH]c(N)nc43)C(O)C2O)[C@@H](COP(=O)(O)OP(=O)(O)OP(=O)(O)OC[C@H]2O[C@@H]([n+]3cn(C)c4c(=O)[nH]c(N)nc43)C(O)C2OC)O[C@H]1n1cnc2c(N)ncnc21 (some centres unmarked) [N-7413, reference compound]

>  <assigned-label>
true

$$$$
